TARGET: full-length recombinant rat vitamin D receptor (Rattus norvegicus, UniProt P13053)
Sequence (P13053 whole entry): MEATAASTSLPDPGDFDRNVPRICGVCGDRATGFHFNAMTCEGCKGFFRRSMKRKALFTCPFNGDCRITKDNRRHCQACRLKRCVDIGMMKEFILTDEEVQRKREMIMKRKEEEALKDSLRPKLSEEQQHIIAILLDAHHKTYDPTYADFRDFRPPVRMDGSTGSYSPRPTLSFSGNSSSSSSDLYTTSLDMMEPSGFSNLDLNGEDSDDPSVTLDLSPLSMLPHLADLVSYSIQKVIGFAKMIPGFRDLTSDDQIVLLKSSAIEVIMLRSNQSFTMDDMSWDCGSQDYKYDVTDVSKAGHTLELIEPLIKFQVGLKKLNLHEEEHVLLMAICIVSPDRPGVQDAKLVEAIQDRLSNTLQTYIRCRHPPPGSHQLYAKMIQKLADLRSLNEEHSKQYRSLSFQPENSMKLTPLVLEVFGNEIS
TEST CONDITIONS: read-out: Ki, ability to compete with [3H]-1,25(OH)2D3 for binding to the vitamin D receptor; full-length recombinant rat VDR

[
  {
    "COMPOUND": "CC1[C@H](O)CC(=C/C=C2\\CCC[C@]3(C)[C@@H]([C@@H](C)CCC[C@H](C)O)CC[C@@H]23)C[C@H]1O (stereo partly drawn) [IB-1]",
    "Ki [nM]": 0.8
  },
  {
    "COMPOUND": "CC1[C@H](O)CC(=C/C=C2\\CCC[C@]3(C)[C@@H]([C@H](C)CCC[C@@H](C)O)CC[C@@H]23)C[C@H]1O (stereo partly drawn) [MY-2]",
    "Ki [nM]": 0.2
  },
  {
    "COMPOUND": "CC1[C@H](O)CC(=C/C=C2\\CCC[C@]3(C)[C@@H]([C@H](C)CCC[C@@H](C)O)CC[C@@H]23)C[C@H]1O (stereo partly drawn) [DW-1]",
    "Ki [nM]": 1
  }
]
